test protocol: ATG_DR4_LXR_CIS: Attagene CIS-FACTORIAL HepG2 Assay for human Liver X Receptor (LXR), DR4 submotif (AID 2282929)
test conditions: HepG2 Attagene DR4 cis-reporter, mRNA transcription; actives raise or lower the signal
The source made the active and inactive calls. How the source made its calls: active means hit-call score of the fitted dose curve at least 0.9, where 1 is the maximum; inactive means score below 0.9.
Pick from active, inactive when you respond.

These solved cases illustrate the format of a correct answer.
O=C(O)C1=NN(c2ccc(S(=O)(=O)O)cc2)C(=O)C1 ... inactive
CCCCOCC(C)OCC(C)O (stereo unspecified) ... inactive
OCCN1CCOCC1 ... inactive
[Na+] ... inactive
O=S(=O)(O)c1cc(S(=O)(=O)O)c2c(N=Nc3ccccc3)c(O)ccc2c1 ... inactive
CC1COC(=O)O1 (stereo unspecified) ... inactive

Which outcome did this test record for the compound CC(C)Cc1ccccc1 ?
inactive

Would you mind telling me which call this test gave C1=COCCC1 ?
inactive

How did this test come out for CC(CO)(CO)[N+](=O)[O-] ?
inactive

In this assay, the call recorded for CCCCC/C=C\C=C\C(=O)OCC was what?
active

Which outcome was entered for the compound CCCCCCCCCC(=O)OCC in this test?
inactive

Given COc1ccccc1O , state the outcome it received in this test.
inactive

For this compound, state the assay outcome: CCC(=O)OC(C)(C)C1CC=C(C)CC1 (stereo unspecified)
inactive

// return assay outcome for CNC(=C[N+](=O)[O-])NCCSCc1ccc(CN(C)C)o1
inactive

Could you kindly confirm the outcome this assay logged for CC1(C)CC(=O)CC(C)(C)N1 ?
inactive

// return assay outcome for O=C(O)c1ccccc1O
inactive

---

test protocol: ATG_M_19_TRANS: Attagene TRANS-FACTORIAL HepG2 Assay for M19 Transcription Factor (Internal Marker) (AID 2282974)
test conditions: HepG2 Attagene TRANS-FACTORIAL M19 internal marker reporter
Method: ATG_TRANS is a cell-based, multiplexed-readout assay that uses HepG2, a human liver cell line, with measurements taken at 24 hours after chemical dosing in a 24-well plate.ATG_M_19_TRANS is one of 30 assay component(s) measured or calculated from the ATG_TRANS assay. […] This assay endpoint, ATG_M_19_TRANS, was analyzed in the positive analysis fitting direction relative to DMSO as the negative control and baseline of activity. […]
Results filed as inconclusive are left out. Calls of active or inactive are those of the source. The calls were made as follows: active = hit-call score of the fitted dose curve at least 0.9, where 1 is the maximum; inconclusive = response in the unintended direction; inactive = score below 0.9.
property: outcome

// worked examples, outcome included
CCCCOCCOC(=O)c1ccccc1C(=O)OCCOCCCC ... inactive
CC(C)COC(=O)c1ccccc1O ... inactive
CC(C)C(=O)c1ccccc1 ... inactive
C1CCCNCC1 ... inactive
C=C1CC[C@H]2O[C@]2(C)CC[C@@H]2[C@@H]1CC2(C)C ... inactive

// for each molecule in input: emit outcome
1. C=C(C)C(=O)OCCC(C)OC(=O)C(=C)C (centres undefined)
2. O=C(OCc1ccccc1)c1ccccc1O
3. c1ccc(OCCOc2ccccc2)cc1
4. O=C1CCCCCCCCCCCC(=O)OCCO1
5. O=C1CCC(=O)N1
6. c1ccc(Cc2ccccc2)cc1
7. CC(O)COCC(C)O (centres undefined)

1. inactive
2. inactive
3. inactive
4. inactive
5. inactive
6. inactive
7. inactive

For every listed record, write down its outcome.
1. C1COCO1
2. CCOc1ccc(NC(C)=O)cc1
3. O=C(O)c1ccccc1O
4. CCCCC1CCCCC(=O)O1 (centres undefined)
5. CCC(=O)OC(C)(C)C1CC=C(C)CC1 (centres undefined)
6. CCCCOCCOCCOCCO
7. c1ccc(Sc2ccccc2)cc1
8. CC(CCO)CC(C)(C)C (centres undefined)

inactive
inactive
inactive
inactive
inactive
inactive
inactive
inactive

---

system name: Estrogen receptor (Homo sapiens)
test protocol: CCTE_Deisenroth_AIME_384WELL_LUC_Active: CCTE's 384-well Estrogen Receptor Transactivation Assay with AIME metabolic competence (ERTA luciferase; metabolism positive), Deisenroth Lab (AID 2284030)
Records with an inconclusive call do not appear. Calls of active or inactive are those of the source. How the source made its calls: active means hit-call score of the fitted dose curve at least 0.9, where 1 is the maximum; inconclusive means response in the unintended direction; inactive means score below 0.9.
Field 'call' accepts active, inactive

CCCO ... inactive
C=CC(C)CCCC(C)(C)O (centres undefined) ... inactive

Identify the outcome logged in this assay for the compound shown: CN(C)C(=O)Nc1ccccc1
inactive

Dear colleague, could you share the recorded outcome for CC(CCO)CC(C)(C)C (centres undefined) when you have a moment?
inactive

---

test protocol: ATG_PBREM_CIS: Attagene CIS-FACTORIAL HepG2 Assay for human Phenobarbital-responsive Enhancer Module (PBREM) (AID 2282955)
test conditions: HepG2 PBREM cis-reporter, Attagene multiplexed transcription; actives raise or lower the signal
Active and inactive are the calls of the source. The calls were made as follows: active = hit-call score of the fitted dose curve at least 0.9, where 1 is the maximum; inactive = score below 0.9.
property: outcome

Example results:
C[N+](C)(C)CCO ... inactive
CC(C)CCCC(C)(C)O ... inactive
CCC(=O)OCC=Cc1ccccc1 ... inactive
CC1=CC(C)C(C=O)C(C)C1 (centres undefined) (tested in a mixture with another compound) ... inactive
CCCCCCCCCCCCN1CCOCC1 ... inactive
CCO[Si](CC)(OCC)OCC ... inactive
COC(=O)c1ccc(C(=O)OC)cc1 ... inactive
C=C(C)C(N)=O ... inactive
CCC=C(C)C=O ... inactive
CCc1cccc(O)c1 ... inactive

Hello, I would appreciate it if you could give outcome for each entry below.
1. OC[C@H]1O[C@@H](O[C@H]2[C@H](O)[C@@H](O)[C@H](O)O[C@@H]2CO)[C@H](O)[C@@H](O)[C@H]1O
2. CN(C)CCC=C1c2ccccc2CCc2ccccc21

1: inactive; 2: inactive

Would you mind giving outcome for every molecule in the list below?
1. CCCCN(CCO)CCO
2. NC(=O)c1cnccn1

1: inactive; 2: inactive

---

system name: Estrogen receptor (Homo sapiens) + Estrogen receptor beta (Homo sapiens) (UniProt P03372+Q92731)
Sequence (P03372 whole entry, looked up, the tested form may be a part): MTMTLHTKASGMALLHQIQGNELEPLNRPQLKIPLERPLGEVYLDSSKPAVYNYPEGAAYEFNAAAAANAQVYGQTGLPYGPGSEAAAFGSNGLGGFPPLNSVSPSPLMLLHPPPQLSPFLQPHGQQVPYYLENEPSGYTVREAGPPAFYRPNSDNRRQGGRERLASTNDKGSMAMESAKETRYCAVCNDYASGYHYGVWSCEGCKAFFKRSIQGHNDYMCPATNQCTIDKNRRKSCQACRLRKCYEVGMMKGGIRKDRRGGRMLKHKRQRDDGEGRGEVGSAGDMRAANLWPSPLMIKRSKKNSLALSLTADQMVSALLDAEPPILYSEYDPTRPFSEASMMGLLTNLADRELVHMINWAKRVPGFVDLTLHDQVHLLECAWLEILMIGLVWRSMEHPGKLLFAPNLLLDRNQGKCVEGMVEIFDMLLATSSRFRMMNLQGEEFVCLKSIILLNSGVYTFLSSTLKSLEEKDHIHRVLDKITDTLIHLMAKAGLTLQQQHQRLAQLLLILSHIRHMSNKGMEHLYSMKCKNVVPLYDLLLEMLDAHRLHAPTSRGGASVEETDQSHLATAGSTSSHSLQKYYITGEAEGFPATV
Sequence (Q92731 whole entry, looked up, the tested form may be a part): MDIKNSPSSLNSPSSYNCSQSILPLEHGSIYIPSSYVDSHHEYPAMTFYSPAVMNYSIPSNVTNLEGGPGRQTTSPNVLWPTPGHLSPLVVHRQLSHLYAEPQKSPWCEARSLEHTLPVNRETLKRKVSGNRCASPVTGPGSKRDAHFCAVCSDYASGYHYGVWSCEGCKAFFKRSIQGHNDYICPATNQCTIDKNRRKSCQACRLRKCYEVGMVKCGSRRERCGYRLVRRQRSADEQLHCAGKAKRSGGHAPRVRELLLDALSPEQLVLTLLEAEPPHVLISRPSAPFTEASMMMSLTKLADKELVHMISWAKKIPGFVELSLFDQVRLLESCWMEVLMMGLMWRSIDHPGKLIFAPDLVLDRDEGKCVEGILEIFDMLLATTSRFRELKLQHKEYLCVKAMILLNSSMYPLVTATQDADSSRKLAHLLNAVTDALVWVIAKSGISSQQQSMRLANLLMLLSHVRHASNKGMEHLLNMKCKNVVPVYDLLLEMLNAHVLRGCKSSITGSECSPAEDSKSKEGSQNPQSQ
test protocol: OT_ER_ERaERb_1440: Odyssey Thera (OT) 24-hour HEK293T Protein-Complementation Assay for Estrogen Receptor-alpha/-beta Homodimer (AID 2283356);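 further: heteromer of ER alpha and ER beta binding domains; hits raise reporter fluorescence and both agonists and antagonists give an increase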
Experimental: OT_ER_ERaERb_1440 is a cell-based assay that uses HEK293T, a human kidney cell line, with measurements taken at 24 hours after chemical dosing in a 384-well plate.OT_ER_ERaERb_1440 is one of one assay component(s) measured or calculated from the OT_ER_ERaERb_1440 assay. […] This assay endpoint, OT_ER_ERaERb_1440, was analyzed in the positive analysis fitting direction relative to DMSO as the negative control and baseline of activity. […]
Records with an inconclusive call do not appear. The source made the active and inactive calls. How the source made its calls: active means hit-call score of the fitted dose curve at least 0.9, where 1 is the maximum; inconclusive means response in the unintended direction; inactive means score below 0.9.
Field 'call' accepts 1 for active, 0 for inactive

CC(C)(C)c1ccc(S)cc1 ... 0
CCCCCCOc1ccc(O)cc1 ... 1
CCCCCCC(C)O (centres undefined) ... 0
OCC=Cc1ccccc1 ... 0
COC(=O)c1ccc(C(=O)OC)cc1 ... 0

Assay result, entry COc1ccc2[nH]cc(CCNC(C)=O)c2c1 — outcome?
0

Would you mind telling me which call this test gave CC(=O)OC(C)(C)C ?
0

Test call for this molecule, please: O=C(OCc1ccccc1)c1ccccc1O
1

Test call, this molecule: O=C(O)CS
0

---

test protocol: BSK_hDFCGF_SRB: Viability Assessment in the BioMAP Diversity Plus: hDFCGF Assay (AID 2283061);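 further: cells exposed to compound for 24 h before the read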
test conditions: primary human foreskin fibroblasts
Activity calls are given as the source filed them. How the source made its calls: active means hit-call score of the fitted dose curve at least 0.9, where 1 is the maximum; inactive means score below 0.9.
# valid calls are 1 = active, -1 = inactive; nothing else

Solved cases (3 shown):
OCCN1CCOCC1 ... -1
CCCCCCCCCCCCS ... 1
CCOC(=O)CCCCCCCCC(=O)OCC ... -1

What call does the record list for c1ccc2c(c1)-c1ccc3ccc4cccc5cc-2c1c3c45 ?
-1

Kindly provide the recorded test outcome for the following compound: O=C1OC2(c3ccc(O)cc3Oc3cc(O)ccc32)c2ccccc21
-1

Recorded test call requested for NC(=O)c1c(Cl)cccc1Cl
-1

In this assay, the call recorded for CCCCN(CCO)CCO was what?
-1

---

test protocol: BSK_SAg_SRB: Viability Assessment in the BioMAP Diversity Plus: SAg Assay (AID 2283096);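 further: cells read one day after compound addition; hits may be either gain or loss of signal compared with DMSO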
test conditions: primary human HUVEC with PBMC
Calls of active or inactive are those of the source. The calls were made as follows: active = hit-call score of the fitted dose curve at least 0.9, where 1 is the maximum; inactive = score below 0.9.
property: AC50

For orientation, consider the following solved cases.
O=S1(=O)CC(Cl)(Cl)C(Cl)(Cl)C1 ... 0.655 µM (active)
CC(=O)CCC=C(C)CCC=C(C)C ... inactive
C=C1CC/C=C(\C)CC[C@@H]2[C@@H]1CC2(C)C ... 33.1 µM (active)
CCCCOCCOCCO ... inactive
C#C[C@]1(O)CC[C@H]2[C@@H]3CCc4cc(O)ccc4[C@H]3CC[C@@]21C ... 5.5 µM (active)

// each listed compound needs a value for AC50
1. CCCCCCCCCC(=O)OCC
2. CC(=O)OC(C)(C)C1CC=C(C)CC1 (centres undefined)
3. CC(C)CCCC(C)(C)O
4. O=C(c1ccc(OCCN2CCCCC2)cc1)c1c(-c2ccc(O)cc2)sc2cc(O)ccc12

inactive
inactive
inactive
24.1 µM (active)

Data credit: PubChem BioAssay (EPA / NIEHS)
